# Study system: human TYK2 catalytic kinase (JH1) domain (Homo sapiens (Human), UniProt P29597)
# Sequence (P29597 897-1176): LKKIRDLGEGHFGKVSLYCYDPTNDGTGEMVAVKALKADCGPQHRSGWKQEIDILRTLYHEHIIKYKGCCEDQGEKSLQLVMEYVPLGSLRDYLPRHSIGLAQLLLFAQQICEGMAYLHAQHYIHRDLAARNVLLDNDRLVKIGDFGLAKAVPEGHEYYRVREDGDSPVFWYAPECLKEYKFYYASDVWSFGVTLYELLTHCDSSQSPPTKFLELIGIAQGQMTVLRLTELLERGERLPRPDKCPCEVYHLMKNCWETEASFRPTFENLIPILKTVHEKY
# Test description: ADP-Glo Kinase Assay, recombinant TYK2 catalytic kinase (JH1) domain
# Assay type: biochemical
# Setup conditions: recombinant JH1 domain 2 nM, 10 μM ATP, JAK3-974 peptide, mean, read-out: TYK2 biochem IC50 (nM) Mean

>  <Compound>
Cc1ccc(-c2cc3c(N4CC5CCC(C4)N5C(=O)[C@@H]4C[C@H]4F)ncnn3c2)cn1 [Example 92]

>  <IC50>
42.2 nM

$$$$
>  <Compound>
O=C([C@@H]1C[C@H]1F)N1C2CCC1CN(c1ccnn3cc(-c4ccnc(OC(F)F)c4)cc13)C2 [Example 111]

>  <IC50>
3.6 nM

$$$$
>  <Compound>
COc1ncnc(-c2cc3c(N4CC5CCC(C4)N5C(=O)[C@@H]4C[C@H]4F)ccnn3c2)c1F [Example 107]

>  <IC50>
92.3 nM

$$$$
>  <Compound>
COc1cc(-c2cn3ncc(F)c(N4CC5CCC(C4)N5C(=O)[C@@H]4C[C@H]4F)c3n2)ccn1 (stereo in doubt) [Example 142]

>  <IC50>
19.6 nM

$$$$

* * *

# Study system: human JAK1 catalytic kinase (JH1) domain (Homo sapiens (Human))
# Sequence (P23458 875-1153): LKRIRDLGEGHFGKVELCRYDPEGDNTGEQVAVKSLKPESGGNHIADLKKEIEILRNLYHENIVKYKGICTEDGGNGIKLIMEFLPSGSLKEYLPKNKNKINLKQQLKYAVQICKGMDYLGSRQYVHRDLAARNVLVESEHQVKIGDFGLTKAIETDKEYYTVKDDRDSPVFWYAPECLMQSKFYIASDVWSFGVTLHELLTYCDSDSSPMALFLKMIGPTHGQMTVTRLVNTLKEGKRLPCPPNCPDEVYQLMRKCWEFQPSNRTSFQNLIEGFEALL
# Test description: ADP-Glo Kinase Assay, recombinant JAK1 catalytic kinase (JH1) domain
# Type: biochemical
# Setup conditions: recombinant JH1 domain 4 nM, 35 μM ATP, JAK3-342 peptide, mean, read-out: JAK1 biochem IC50 (nM) Mean
# strict inequality: IC50 < 700 nM yields MET, everything else yields NOT MET

>  <Molecule>
COc1ccc(-c2cc3c(N4CC5CCC(C4)N5C(=O)C4CC4)ncnn3c2)cn1

>  <Study system>
human JAK1 catalytic kinase (JH1) domain (Homo sapiens (Human))

>  <Label class>
NOT MET

$$$$
>  <Molecule>
Cc1cc(-c2nc3c(N4CC5CCC(C4)N5C(=O)[C@@H]4C[C@H]4F)ccnc3[nH]2)ccn1

>  <Study system>
human JAK1 catalytic kinase (JH1) domain (Homo sapiens (Human))

>  <Label class>
MET

$$$$
>  <Molecule>
C[C@]1(F)C[C@@H](C(=O)N2C3CCC2CN(c2ncnn4cc(-c5cnn(C(F)F)c5)cc24)C3)C1

>  <Study system>
human JAK1 catalytic kinase (JH1) domain (Homo sapiens (Human))

>  <Label class>
NOT MET

$$$$
>  <Molecule>
Cn1cc(-c2cc3c(N4CC5CCC(C4)N5C(=O)C4(C)CCC4)ncnn3c2)cn1

>  <Study system>
human JAK1 catalytic kinase (JH1) domain (Homo sapiens (Human))

>  <Label class>
NOT MET

$$$$
>  <Molecule>
O=C(C1CCC1F)N1C2CCC1CN(c1ncnn3cc(-c4cnn(C(F)F)c4)cc13)C2 (stereo not shown)

>  <Study system>
human JAK1 catalytic kinase (JH1) domain (Homo sapiens (Human))

>  <Label class>
NOT MET

$$$$
>  <Molecule>
O=C(C1CC1)N1C2CCC1CN(c1ncnn3cc(-c4cnn(C5CCC5)c4)cc13)C2

>  <Study system>
human JAK1 catalytic kinase (JH1) domain (Homo sapiens (Human))

>  <Label class>
NOT MET

$$$$
>  <Molecule>
Cn1cc(-c2nc3c(N4CC5CCC(C4)N5C(=O)[C@@H]4C[C@H]4F)ccnc3[nH]2)cn1

>  <Study system>
human JAK1 catalytic kinase (JH1) domain (Homo sapiens (Human))

>  <Label class>
MET

$$$$
>  <Molecule>
O=C([C@@H]1C[C@H]1F)N1C2CCC1CN(c1ncnn3cc(-c4cnn(C(F)F)c4)cc13)C2 [Example 1]

>  <Study system>
human JAK1 catalytic kinase (JH1) domain (Homo sapiens (Human))

>  <Label class>
MET

$$$$
>  <Molecule>
O=C([C@@H]1C[C@H]1F)N1C2CCC1CN(c1ncnn3cc(-c4ccnnc4)cc13)C2

>  <Study system>
human JAK1 catalytic kinase (JH1) domain (Homo sapiens (Human))

>  <Label class>
NOT MET

$$$$
>  <Molecule>
N#Cc1cc(-c2cc3c(N4CC5CCC(C4)N5C(=O)[C@@H]4C[C@H]4F)ncnn3c2)ccn1

>  <Study system>
human JAK1 catalytic kinase (JH1) domain (Homo sapiens (Human))

>  <Label class>
NOT MET

$$$$
>  <Molecule>
COc1cc(-c2cc3c(N4CC5CCC(C4)N5C(=O)[C@@H]4C[C@H]4F)ccnn3c2)c(F)cn1

>  <Study system>
human JAK1 catalytic kinase (JH1) domain (Homo sapiens (Human))

>  <Label class>
MET

$$$$
>  <Molecule>
CC(C)C(=O)N1C2CCC1CN(c1ncnn3cc(-c4cnn(C)c4)cc13)C2

>  <Study system>
human JAK1 catalytic kinase (JH1) domain (Homo sapiens (Human))

>  <Label class>
NOT MET

$$$$
>  <Molecule>
CCC(=O)N1C2CCC1CN(c1ncnn3cc(-c4cnn(C)c4)cc13)C2

>  <Study system>
human JAK1 catalytic kinase (JH1) domain (Homo sapiens (Human))

>  <Label class>
NOT MET

$$$$
>  <Molecule>
N#Cc1cccc(-c2cc3c(N4CC5CCC(C4)N5C(=O)C4CC4)ncnn3c2)c1

>  <Study system>
human JAK1 catalytic kinase (JH1) domain (Homo sapiens (Human))

>  <Label class>
NOT MET

$$$$
>  <Molecule>
Cn1cc(-c2cc3c(N4CC5CCC(C4)N5S(=O)(=O)C4CC4)ncnc3[nH]2)cn1

>  <Study system>
human JAK1 catalytic kinase (JH1) domain (Homo sapiens (Human))

>  <Label class>
NOT MET

$$$$
>  <Molecule>
Cn1cc(-c2cc3c(N4CC5CCC(C4)N5S(=O)(=O)C4CC4)ccnc3[nH]2)cn1

>  <Study system>
human JAK1 catalytic kinase (JH1) domain (Homo sapiens (Human))

>  <Label class>
MET

$$$$
